B1: Androgen receptor, residues 557 to 632; numbered along this chain, P10275 (parent)
chain: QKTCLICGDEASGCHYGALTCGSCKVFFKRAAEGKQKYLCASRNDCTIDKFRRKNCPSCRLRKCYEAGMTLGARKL

Variants of: B1
Experiment: abundance fitness (aPCA) (normalised: wild type 0, dead -1); higher = more abundant; growth selection in yeast, the domain comes from the species named
Settings: Homo sapiens
Assign class by abundance fitness: not lower than -0.2 means Condition met; lower than -0.2 means Condition not met.

Previously resolved entries follow.
>  <mutation.notation>
A73V

>  <assigned.class>
Condition met

$$$$
>  <mutation.notation>
K63R

>  <assigned.class>
Condition met

$$$$
>  <mutation.notation>
C4K

>  <assigned.class>
Condition not met

$$$$
>  <mutation.notation>
H15Q

>  <assigned.class>
Condition met

$$$$
>  <mutation.notation>
R74K

>  <assigned.class>
Condition not met

$$$$
>  <mutation.notation>
K35Y

>  <assigned.class>
Condition met

$$$$

Enquiry: Is abundance fitness for "K35L" at or above -0.2?
Return: Condition met

Enquiry: Is abundance fitness for "A41E" at or above -0.2?
Return: Condition met

Enquiry: Is abundance fitness for "K37Y" at or above -0.2?
Return: Condition met

Enquiry: Is abundance fitness for "K35M" at or above -0.2?
Return: Condition met

Enquiry: Is abundance fitness for "A31Q" at or above -0.2?
Return: Condition met

Enquiry: Is abundance fitness for "C46I" at or above -0.2?
Return: Condition not met

Enquiry: Is abundance fitness for "R74C" at or above -0.2?
Return: Condition met

Enquiry: Is abundance fitness for "Y38M" at or above -0.2?
Return: Condition met

Enquiry: Is abundance fitness for "D49R" at or above -0.2?
Return: Condition not met

Enquiry: Is abundance fitness for "T70I" at or above -0.2?
Return: Condition not met

Enquiry: Is abundance fitness for "A73E" at or above -0.2?
Return: Condition met

Enquiry: Is abundance fitness for "Y16V" at or above -0.2?
Return: Condition not met

Enquiry: Is abundance fitness for "A41V" at or above -0.2?
Return: Condition met
